Target: hERG (KCNH2) (Homo sapiens, UniProt Q12809)
Sequence (Q12809 whole entry): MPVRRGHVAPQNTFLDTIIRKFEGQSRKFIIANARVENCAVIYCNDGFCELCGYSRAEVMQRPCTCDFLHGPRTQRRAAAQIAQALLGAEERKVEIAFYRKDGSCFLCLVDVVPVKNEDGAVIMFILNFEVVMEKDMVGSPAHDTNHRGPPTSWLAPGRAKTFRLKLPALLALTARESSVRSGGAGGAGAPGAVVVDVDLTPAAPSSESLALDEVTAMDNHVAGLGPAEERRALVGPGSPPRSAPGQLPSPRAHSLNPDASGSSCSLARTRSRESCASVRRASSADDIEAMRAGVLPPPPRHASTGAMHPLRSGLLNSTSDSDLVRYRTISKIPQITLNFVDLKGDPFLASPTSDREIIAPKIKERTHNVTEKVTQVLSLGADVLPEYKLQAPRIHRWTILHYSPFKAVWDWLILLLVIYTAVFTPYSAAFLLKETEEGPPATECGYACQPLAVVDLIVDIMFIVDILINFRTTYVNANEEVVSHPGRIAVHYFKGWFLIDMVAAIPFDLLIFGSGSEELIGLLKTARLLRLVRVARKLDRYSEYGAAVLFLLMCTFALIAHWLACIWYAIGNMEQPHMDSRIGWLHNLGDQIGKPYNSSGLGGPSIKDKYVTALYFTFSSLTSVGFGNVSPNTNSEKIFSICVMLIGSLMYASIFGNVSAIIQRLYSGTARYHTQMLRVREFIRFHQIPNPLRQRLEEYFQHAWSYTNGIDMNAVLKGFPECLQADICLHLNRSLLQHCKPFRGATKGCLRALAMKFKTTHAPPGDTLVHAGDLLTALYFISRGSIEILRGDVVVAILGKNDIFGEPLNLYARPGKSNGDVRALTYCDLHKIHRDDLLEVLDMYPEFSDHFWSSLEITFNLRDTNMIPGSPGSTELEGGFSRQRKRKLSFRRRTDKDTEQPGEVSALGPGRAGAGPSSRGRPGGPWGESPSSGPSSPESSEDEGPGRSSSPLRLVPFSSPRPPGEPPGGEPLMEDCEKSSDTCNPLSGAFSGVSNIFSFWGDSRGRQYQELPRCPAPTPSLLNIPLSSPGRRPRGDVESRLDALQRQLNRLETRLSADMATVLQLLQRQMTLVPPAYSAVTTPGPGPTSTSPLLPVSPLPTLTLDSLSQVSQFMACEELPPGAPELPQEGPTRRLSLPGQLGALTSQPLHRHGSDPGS
Test: Inhibition of human ERG at 30 uM by patch clamp assay
quantity.kind: inhibition at 30 µM (%)
Supply the numeric figure in %, leaving out any unit text.

Tell me the measured inhibition at 30 µM of CC[C@@H](C)Nc1ncc(C(=O)Nc2cc(C(=O)NC)ccc2C)s1 , please.
7

----------
Test: AUC (0 to 24hrs) in rat at 10 mg/kg, po
Format: ADME, organism-based
Set-up: time < 24 hr, dose 10 mg/kg, route oral
Conditions: plasma
quantity.kind: AUC(0-t) at 24 h (µM·h)
Supply the numeric figure in µM·h, leaving out any unit text.

Tell me the measured AUC(0-t) at 24 h of CC[C@@H](C)Nc1ncc(C(=O)Nc2cc(C(=O)NC)ccc2C)s1 , please.
25
